tested on: E. coli; assay: MIC values, E. coli (Tables 1-4); assay type: cell-based
READOUT NAME: MIC E. coli

Use these answered entries as a reference point.
COMPOUND	EXPERIMENTAL VALUE
CO[C@H]1/C=C/O[C@@]2(C)Oc3c(C)c(O)c4c(=O)c(c5oc6cc(N7CCC(N)CC7)cc(O)c6nc-5c4c3C2=O)NC(=O)/C(C)=C\C=C\[C@H](C)[C@H](O)[C@@H](C)[C@@H](O)[C@@H](C)[C@H](OC(C)=O)[C@@H]1C	>8 µg/mL
COC1C=COC2(C)Oc3c(C)c(O)c4c(=O)c(c5oc6cc(N7CC8CCCNC8C7)cc(O)c6nc-5c4c3C2=O)NC(=O)C(C)=CC=CC(C)C(O)C(C)C(O)C(C)C(OC(C)=O)C1C (stereo not drawn) [Compound 5]	8 µg/mL
CCOC(=O)N1CCCC2CN(c3cc(O)c4nc5c6c7c8c(C)c(O)c6c(=O)c(c-5oc4c3)NC(=O)C(C)=CC=CC(C)C(O)C(C)C(O)C(C)C(O)C(C)C(OC)C=COC(C)(O8)C7=O)CC21 (stereo not drawn) [Compound 148]	8 µg/mL
CO[C@H]1/C=C/O[C@@]2(C)Oc3c(C)c(O)c4c(=O)c(c5oc6cc(N7C[C@@H](C)N[C@@H](C)C7)cc(O)c6nc-5c4c3C2=O)NC(=O)/C(C)=C\C=C\[C@H](C)[C@H](O)[C@@H](C)[C@@H](O)[C@@H](C)[C@H](O)[C@@H]1C	4 µg/mL

Q) What value of measured MIC E. coli is listed for COC1C=COC2(C)Oc3c(C)c(O)c4c(=O)c(c5oc6cc(N7CC8CCCNC8C7)cc(O)c6nc-5c4c3C2=O)NC(=O)C(C)=CC=CC(C)C(O)C(C)C(O)C(C)C(O)C1C (stereo not drawn) [Compound 144] ?
A) >8 µg/mL

Q) Entry CO[C@H]1/C=C/O[C@@]2(C)Oc3c(C)c(O)c4c(=O)c(c5oc6cc(N7CCC(N8CCOCC8)CC7)cc(O)c6nc-5c4c3C2=O)NC(=O)/C(C)=C\C=C\[C@H](C)[C@H](O)[C@@H](C)[C@@H](O)[C@@H](C)[C@H](O)[C@@H]1C : reported MIC E. coli = ?
A) 4 µg/mL

Q) Look up MIC E. coli for this compound: COC1C=COC2(C)Oc3c(C)c(O)c4c(=O)c(c5oc6cc(N7CC8CCCNC8C7)cc(O)c6nc-5c4c3C2=O)NC(=O)C(C)=CC=CC(C)C(O)C(C)C(O)C(C)C(O)C1C (stereo not drawn) [Compound 15]
A) >8 µg/mL

Q) What measured MIC E. coli goes with CO[C@H]1/C=C/O[C@@]2(C)Oc3c(C)c(O)c4c(=O)c(c5sc6cc(N7C[C@@H](C)N[C@@H](C)C7)ccc6nc-5c4c3C2=O)NC(=O)/C(C)=C\C=C\[C@H](C)[C@H](O)[C@@H](C)[C@@H](O)[C@@H](C)[C@H](O)[C@@H]1C ?
A) 2 µg/mL

Q) Returns the measured MIC E. coli for the input compound. Input: CO[C@H]1/C=C/O[C@@]2(C)Oc3c(C)c(O)c4c(=O)c(c5oc6cc(N(C)CC(C)C)cc(O)c6nc-5c4c3C2=O)NC(=O)/C(C)=C\C=C\[C@H](C)[C@H](O)[C@@H](C)[C@@H](O)[C@@H](C)[C@H](O)[C@@H]1C
A) >8 µg/mL
